assay: A quantitative high throughput screen for small molecules that induce DNA re-replication in SW480 colon adenocarcinoma cells.; note: nearly all actives have a fitted effect of over 55% in size; note: potency is the fitted concentration of half-maximal effect; conditions: Hoechst DNA content imaging, 48 h; series mostly up to 46.1 µM
The whole screen tested about 340,000 compounds, of which about 6,200 (1.8%) were called active. Not shown: some 10% with an inconclusive outcome. This excerpt belongs to a sample that is enriched for actives.
MEASURED PROPERTY: Potency

Guide cases for Potency, answers given:
COMPOUND	Potency
O=C1Cc2cc(S(=O)(=O)Nc3cccc(F)c3)ccc2N1	inactive
CCOC(=O)N(Cc1ccccc1)C1CC1	inactive
CS(=O)(=O)Nc1ccccc1C(=O)OCC(=O)NC1CC1	inactive
COc1ccc(/C=C/C(=O)Nc2ccc(C)cc2)cc1S(=O)(=O)N1CCOCC1	inactive
CSCCC(NC(=O)COc1ccccc1)C(=O)N1CCN(c2cccc(C(F)(F)F)c2)CC1 (stereo not drawn)	inactive

Potency reading for COc1ccc(C(=O)CC(=O)C(=O)Nc2cc([N+](=O)[O-])ccc2OC)cc1 : inactive

Potency reading for O=C(Nc1cccc(Cl)c1N1CCOCC1)c1cccnc1 : inactive

Potency reading for O=C(Nc1cccc(Cl)c1N1CCOCC1)c1ccc2c(c1)OCCO2 : 2.31 µM (active)

Potency reading for COc1ccc(C(=O)N/N=C2\CCS(=O)(=O)c3ccc(F)cc32)cc1OC : 10.3 µM (active)

Potency reading for Nc1ccc2nc3c(=O)[nH]c(=S)[nH]c3nc2c1 : 4.61 µM (active)
